tgt: human MDM2 (GST-hMDM2 1-188), interaction with biotinylated-p53 (1-83) (Homo sapiens, UniProt Q00987)
Construct: Amino acid residues 1-188 of human MDM2 were expressed
Sequence (Q00987 1-188): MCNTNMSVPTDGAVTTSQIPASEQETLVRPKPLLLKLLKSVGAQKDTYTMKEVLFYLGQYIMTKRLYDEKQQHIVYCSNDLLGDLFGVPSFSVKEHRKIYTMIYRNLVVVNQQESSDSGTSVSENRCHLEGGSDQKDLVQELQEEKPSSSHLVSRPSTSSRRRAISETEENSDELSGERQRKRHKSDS
test.details: improved HTRF assay (HTRF2 assay), inhibition of HDM2-p53 interaction
condition.context: 0.2 nM GST-hMDM2, 0.5 nM biotinylated-p53, 100 mM KF
assay.endpoint: IC50 (nM)
Your answer should be a plain number; it is taken to be in nM.

Use the examples below as a reference point.
compound	uom	numeric.result
CC(C)(C)S(=O)(=O)C[C@H](C1CC1)N1C(=O)[C@@H](CC(=O)O)O[C@H](c2ccc(C#N)c(Cl)c2)[C@H]1c1ccc(Cl)cc1 (single isomer, unassigned) [Example 325]	nM	4
O=C(O)C[C@H]1O[C@H](c2cccc(Cl)c2)[C@@H](c2ccc(Cl)cc2)N([C@H](CS(=O)(=O)Nc2ccccc2F)C2CC2)C1=O (single isomer, unassigned) [Example 295]	nM	2

# evaluate next
Incoming: Which measured IC50 value corresponds to CC[C@@H](CS(=O)(=O)C(C)(C)C)N1C(=O)[C@@H](CC(=O)O)O[C@H](c2cc(Cl)cc(Cl)c2)[C@H]1c1ccc(Cl)cc1 (single isomer, unassigned) [Example 148] ?
Outgoing: 7

* * *

Measured log10 of IC50 accompanies every entry in the list below.
tgt: human MDM2 (GST-hMDM2 1-188), interaction with biotinylated-p53 (1-83) (Homo sapiens, UniProt Q00987)
Construct: Amino acid residues 1-188 of human MDM2 were expressed
test.details: improved HTRF assay (HTRF2 assay), inhibition of HDM2-p53 interaction
condition.context: 0.2 nM GST-hMDM2, 0.5 nM biotinylated-p53, 100 mM KF
Description: Residues 1-83 of human p53 were expressed as an amino-terminal AviTag™-TrxA-6xHis fusion protein (biotinylated p53) in E. coli. Each protein was purified from cell paste by affinity chromatography. Specifically, 10 uL of GST-hMDM2 was incubated with 10 ul of diluted compound (various concentrations, serially diluted) in 10% DMSO for 20 minutes at room temperature. […] Time-resolved fluorescence readings were measured on a microplate multilabel reader. […]
Use the decimal logarithm of IC50 (nM).

Solved entries:
compound	assay.endpoint	numeric.result
Cc1nnc(C[C@H]2O[C@H](c3cccc(Cl)c3)[C@@H](c3ccc(Cl)cc3)N([C@H](CN(c3ccccc3F)S(=O)(=O)C3CC3)C3CC3)C2=O)o1 (single isomer, unassigned)	log10 of IC50	0.30
CC(C)(C)S(=O)(=O)C[C@H](C1CCC1)N1C(=O)[C@@H](CC(=O)O)O[C@H](c2cccc(Cl)c2)[C@H]1c1ccc(Cl)cc1 (single isomer, unassigned) [Example 270]	log10 of IC50	0.30
CC[C@@H](CS(=O)(=O)[C@H](C)C(C)C)N1C(=O)[C@H](CC(=O)O)O[C@H](c2cccc(Cl)c2)[C@H]1c1ccc(Cl)cc1 (single isomer, unassigned) [Example 284]	log10 of IC50	0.70
CC[C@@H](CS(=O)(=O)c1ccccc1Cl)N1C(=O)[C@@H](CC(=O)O)O[C@H](c2cccc(Cl)c2)[C@H]1c1ccc(Cl)cc1 (single isomer, unassigned) [Example 137]	log10 of IC50	0.70
CC[C@@H](CS(=O)(=O)C(C)(C)C)N1C(=O)[C@@H](CC(=O)O)O[C@H](c2cccc(Cl)c2)[C@H]1c1ccc(Cl)cc1F (single isomer, unassigned) [Example 316]	log10 of IC50	0.30

Incoming: Record request: log10 of IC50 value, item C[C@@H](CS(=O)(=O)C(C)(C)C)N1C(=O)[C@@H](CC(=O)O)O[C@H](c2cc(F)cc(Cl)c2)[C@H]1c1ccc(Cl)c(F)c1 (single isomer, unassigned) [Example 423]
Outgoing: 0.00

Incoming: Also need Cn1ccnc1C[C@H]1O[C@H](c2cccc(Cl)c2)[C@@H](c2ccc(Cl)cc2)N([C@H](CS(=O)(=O)C(C)(C)C)C2CC2)C1=O , thanks.
Outgoing: 1.46

Incoming: Further, for C[C@@H](CS(=O)(=O)C(C)(C)C)N1C(=O)[C@H](CC(=O)N(C)C)O[C@H](c2cccc(Cl)c2)[C@H]1c1ccc(Cl)cc1 (single isomer, unassigned) ?
Outgoing: 1.20

Incoming: Can you handle CC[C@@H](CS(=O)(=O)[C@H](C)C(C)C)N1C(=O)[C@H](CC(=O)O)O[C@H](c2cccc(Cl)c2)[C@H]1c1ccc(Cl)cc1 (single isomer, unassigned) [Example 285] next?
Outgoing: 0.95

Where these numbers come from: patent US9376425B2
